molecular target: PD-L1/CHO-K1 cells (Homo sapiens (Human)); assay: PD-L1 internalization (FACS, PD-L1/CHO-K1 cells); assay type: cell-based; conditions: % activation of PD-L1 internalization = 1 − PD-L1 signal; 17 hours incubation
Returns one of Condition met or Condition not met; Condition met when Internalization is >= 20%.

Worked examples, 5 compounds total:
{"structure-string": "O=C1COc2cc(-c3cccc(-c4cccc(-c5ccc6c(c5)OCC(=O)N6CCN5CC[C@H](O)C5)c4Cl)c3Cl)ccc2N1CCN1CC[C@H](O)C1", "classification": "Condition not met"}
{"structure-string": "CN(CCN1C(=O)COc2cc(-c3cccc(-c4cccc(-c5ccc6c(c5)OCC(=O)N6CCN(C)C[C@@H]5CCC(=O)N5)c4Cl)c3Cl)ccc21)C[C@@H]1CCC(=O)N1", "classification": "Condition not met"}
{"structure-string": "O=C(O)[C@@H](O)CNCCN1C(=O)COc2cc(-c3cccc(-c4cccc(-c5ccc6c(c5)OCC(=O)N6CCNC[C@H](O)C(=O)O)c4Cl)c3Cl)ccc21", "classification": "Condition not met"}
{"structure-string": "O=C(O)[C@@H]1C[C@@H](O)CN1CCN1C(=O)COc2cc(-c3cccc(-c4cccc(-c5ccc6c(c5)OCC(=O)N6CCN5C[C@H](O)C[C@H]5C(=O)O)c4Cl)c3Cl)ccc21", "classification": "Condition not met"}
{"structure-string": "O=C(O)[C@H](CO)NCCN1C(=O)COc2cc(-c3cccc(-c4cccc(-c5ccc6c(c5)OCC(=O)N6C[C@@H]5CCCN5)c4Cl)c3Cl)ccc21", "classification": "Condition met"}

Could you please find out whether O=C1COc2cc(-c3cccc(-c4cccc(-c5ccc6c(c5)OCC(=O)N6CCN[C@@H](CO)C(=O)O)c4Cl)c3Cl)ccc2N1 has Internalization that meets 20% or exceeds it?
Condition not met

Threshold query (Internalization >= 20%) on Cl.O=C1CC[C@@H](CN2C(=O)COc3cc(-c4cccc(-c5cccc(-c6ccc7c(c6)OCC(=O)N7C[C@@H]6CCCN6)c5Cl)c4Cl)ccc32)N1
Condition met

API: above_or_equal(metric=Internalization, cutoff=20%) for item C[C@H](O)[C@@H](NCCN1C(=O)COc2cc(-c3cccc(-c4cccc(-c5ccc6c(c5)OCC(=O)N6CCN[C@@H](C(=O)O)[C@H](C)O)c4Cl)c3Cl)ccc21)C(=O)O
Condition not met

Evaluate O=C1CC[C@@H](CN2C(=O)COc3cc(-c4cccc(-c5cccc(-c6ccc7c(c6)OCC(=O)N7C[C@@H]6CCC(=O)N6)c5Cl)c4Cl)ccc32)N1 : Internalization at minimum 20%?
Condition not met

Could you please find out whether C[C@H](CN1C(=O)COc2cc(-c3cccc(-c4cccc(-c5ccc6c(c5)OCC(=O)N6C[C@@H](C)N[C@@H](CO)C(=O)O)c4Cl)c3Cl)ccc21)N[C@@H](CO)C(=O)O has Internalization that meets 20% or exceeds it?
Condition met

---

biological target: PD-L1/CHO-K1 cells (Homo sapiens (Human), UniProt Q9NZQ7); assay: PD-L1 internalization (FACS, PD-L1/CHO-K1 cells); format: cell-based; conditions: % activation of PD-L1 internalization = 1 − PD-L1 signal; 17 hours incubation
Sequence (Q9NZQ7 19-290): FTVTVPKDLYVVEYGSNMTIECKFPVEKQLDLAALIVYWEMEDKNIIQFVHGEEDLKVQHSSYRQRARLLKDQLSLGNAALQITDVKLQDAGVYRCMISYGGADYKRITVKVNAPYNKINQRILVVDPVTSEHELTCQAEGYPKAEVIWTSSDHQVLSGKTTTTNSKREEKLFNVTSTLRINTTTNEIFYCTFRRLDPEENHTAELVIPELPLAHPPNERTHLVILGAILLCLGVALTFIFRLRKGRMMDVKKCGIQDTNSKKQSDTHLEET
Give True when the value for Internalization is at least 5%. Give False when it is less.

A selection of reference data follows.
{"compound": "O=C(O)CCNCCCN1C(=O)COc2cc(-c3cccc(-c4cccc(-c5ccc6c(c5)OCC(=O)N6CCCNCCC(=O)O)c4Cl)c3Cl)ccc21", "classification": "True"}
{"compound": "NCCN1C(=O)COc2cc(-c3cccc(-c4cccc(-c5ccc6c(c5)OCC(=O)N6CCN)c4Cl)c3Cl)ccc21", "classification": "False"}
{"compound": "O=C(O)CCNCCN1C(=O)COc2cc(-c3cccc(-c4cccc(-c5ccc6c(c5)OCC(=O)N6CCNCCC(=O)O)c4Cl)c3Cl)ccc21", "classification": "True"}
{"compound": "C[C@H](NCCN1C(=O)COc2cc(-c3cccc(-c4cccc(-c5ccc6c(c5)OCC(=O)N6CCN[C@@H](C)C(=O)O)c4Cl)c3Cl)ccc21)C(=O)O", "classification": "True"}
{"compound": "O=C1COc2cc(-c3cccc(-c4cccc(-c5ccc6c(c5)OCC(=O)N6C[C@H]5CCCN5)c4Cl)c3Cl)ccc2N1C[C@H]1CCCN1", "classification": "True"}
{"compound": "O=C1CC[C@@H](CN2C(=O)COc3c2ccc(-c2cccc(-c4cccc(-c5ccc6c(c5F)OCC(=O)N6C[C@@H]5CCC(=O)N5)c4Cl)c2Cl)c3F)N1", "classification": "False"}

Assess whether reported Internalization for O=C(O)[C@H](CO)NCCN1C(=O)COc2cc(-c3cccc(-c4cccc(-c5ccc6c(c5)OCC(=O)N6CCN[C@@H](CO)C(=O)O)c4Cl)c3Cl)ccc21 sits at 5% or higher.
True

Test whether the compound O=C1COc2cc(-c3cccc(-c4cccc(-c5ccc6c(c5)OCC(=O)N6C[C@@H]5CC6(CC6)CN5)c4Cl)c3Cl)ccc2N1C[C@@H]1CC2(CC2)CN1 records Internalization of 5% or higher.
True

Hi, just wondering whether O=C1CC(CN2C(=O)COc3cc(-c4cccc(-c5cccc(-c6ccc7c(c6)OCC(=O)N7CC6CNC(=O)C6)c5Cl)c4Cl)ccc32)CN1 (stereo not drawn) shows Internalization of 5% or higher.
False

Decide: Internalization of O=C(O)[C@H](CO)NCCN1C(=O)COc2cc(-c3cccc(-c4cccc(-c5ccc6c(c5)OCC(=O)N6CCN[C@@H](CO)C(=O)O)c4F)c3F)ccc21 >= 5%?
False

Decide: is the reported value of Internalization for O=C1COc2cc(-c3cccc(-c4cccc(-c5ccc6c(c5)OCC(=O)N6C[C@H]5NC6CCC5C6)c4Cl)c3Cl)ccc2N1C[C@H]1NC2CCC1C2 equal to or greater than 5%?
True
